system: FaDu; assay: Cytotoxicity against human FaDu cells; assay type: functional
// boundary case: GI50 equal to 0.6 µg/mL maps to false; strictly smaller maps to true

{"Cpd Smiles": "COc1ccc(/C=C\\c2cc(OC)c(OC)c(OC)c2)c(O)c1O", "Cat": "true"}
{"Cpd Smiles": "COc1ccc([C@@H](O)[C@H](O)c2cc(OC)c(OC)c(OC)c2)cc1O", "Cat": "false"}
{"Cpd Smiles": "COc1ccc([C@H](O)[C@@H](O)c2cc(OC)c(OC)c(OC)c2)c(O)c1O", "Cat": "false"}
{"Cpd Smiles": "COc1ccc(/C=C\\c2cc(OC)c(OC)c(OC)c2)cc1O", "Cat": "true"}
{"Cpd Smiles": "COc1ccc([C@@H](O)[C@H](O)c2cc(OC)c(OC)c(OC)c2)c(O)c1O", "Cat": "false"}

###

tested on: Neisseria gonorrhoeae; assay: Antibacterial activity against Neisseria gonorrhoeae by disk susceptibility test; type: functional
Measure: MIC (µg)

{"Molecule": "COc1ccc(CCc2cc(OC)c(OC)c(OC)c2)c(O)c1O", "Measure": "MIC", "Test Result": 12.5}
{"Molecule": "COc1ccc(/C=C/c2cc(OC)c(OC)c(OC)c2)c(O)c1O", "Measure": "MIC", "Test Result": 6.25}
{"Molecule": "COc1ccc(/C=C\\c2cc(OC)c(OC)c(OC)c2)cc1OP(=O)([O-])[O-].[Na+].[Na+] [FOSBRETABULIN DISODIUM]", "Measure": "MIC", "Test Result": 50}
{"Molecule": "COc1ccc(/C=C\\c2cc(OC)c(OC)c(OC)c2)cc1O", "Measure": "MIC", "Test Result": 25}
{"Molecule": "COc1ccc(/C=C\\c2cc(OC)c(OC)c(OC)c2)c(O)c1O", "Measure": "MIC", "Test Result": 25}
{"Molecule": "COc1ccc([C@H](O)[C@@H](O)c2cc(OC)c(OC)c(OC)c2)c(O)c1O", "Measure": "MIC", "Test Result": 25}
